- Tested on: SNB-19 CNS
- testSummary: NCI tumour cell line growth inhibition, 48 h
Where a SMILES comes first, the peptide text is derived from it. The star is where a group is joined. Cbz = O=C(OCc1ccccc1)*
reportedEndpoint: TGI

Task item: State, in one line, measured TGI of CC(=O)SC(C[N+](=O)[O-])c1ccc2c(c1)OCO2 (stereo not given)
Reply: 21.5 µM

Task item: Let me know recorded TGI for O=C(Cn1c2ccc(Br)cc2c2nc3ccccc3nc21)NNC(=S)NC1CCCCC1 , thanks.
Reply: 33.8 µM

Task item: Name the recorded TGI of the item CC(=O)[CH-]C(=O)c1ccccc1.CC(=O)[CH-]C(=O)c1ccccc1.O=S(=O)([O-])c1cc([O-])c2c([O-])cc(S(=O)(=O)[O-])cc2c1.[Na+].[Ti+4] in your answer.
Reply: > 100 µM

Task item: Return TGI for the following molecule: COc1ccc(-c2noc(N)c2-c2cc(OC)c3c(c2)OCO3)cc1
Reply: > 100 µM

Task item: Read the entry C[Si](C)(C)CN1C(=O)c2ccccc2C1(O)c1ccccc1 (stereo not given) and write its reported TGI.
Reply: > 100 µM

Task item: Give recorded TGI. O=[N+]([O-])c1c(F)c(F)c2c(c1F)N(CCCCCl)c1ccccc1S2
Reply: 19.5 µM

Task item: Supply measured TGI of Nc1c(S(=O)(=O)c2ccccc2)c2nc3ccccc3nc2n2c1nc1ccccc12 in your reply.
Reply: > 93.2 µM

Task item: Identify the reported TGI for the following entry. Cc1n[n+](Cc2ccccc2)c2sc(N)nn12
Reply: > 100 µM

Task item: Output measured TGI for this item: COc1ccc2c(c1)C(C)Cc1c(ncnc1-n1cnc3ccccc31)N2C (stereo not given)
Reply: 27.5 µM

Task item: Quote TGI reported for COc1cc(/C=C2\CCC/C(=C\c3ccc(OCC4CO4)c(OC)c3)C2=O)ccc1OCC1CO1 (stereo not given) please.
Reply: 76.4 µM

Task item: Kindly indicate its recorded TGI. Item: Cc1ccc(C)c(N2C(=O)C(=O)C(c3nc4ccccc4o3)/C(=N\NC(=O)c3ccccc3O)C2=O)c1 (stereo not given)
Reply: > 100 µM

Task item: Answer with reported TGI of Cc1ccc2[c](c1)[Sn]([c]1ccccc1)([c]1ccccc1)[c]1cc(C)ccc1N2C
Reply: > 100 µM

Task item: Determine its reported TGI: CNC(C)C(O)c1ccc2oc3cc(=O)c4ccccc4c-3nc2c1 (stereo not given)
Reply: > 100 µM

Task item: State, in one line, measured TGI of Cc1ccc2occ/c(=N\Nc3ccccc3)c2c1
Reply: > 100 µM

Task item: Report TGI for CCOC(=O)CCC(NC(=O)OCc1ccccc1)C(=O)NC(CCC(=O)OCC)C(=O)OCC (stereo not given) (Cbz-Glu(OEt)-Glu(OEt)-OEt; configuration not given here)
Reply: > 100 µM

Task item: Give TGI for C(=Nc1ccc2c(c1)Cc1ccccc1-2)c1ccccn1
Reply: > 100 µM

Task item: For the molecule Cc1nc2ccc(S(=O)(=O)Nc3nccs3)cc2c(=O)n1NS(=O)(=O)c1nccs1 , report TGI.
Reply: > 100 µM

Task item: Quick one: give measured TGI for c1ccc2c(c1)Nc1cccc3c1c-2nc1ccccc13
Reply: > 100 µM

Task item: Provide only the value of recorded TGI for COc1cc2nc(-c3cccs3)nc(Cl)c2cc1OC
Reply: > 100 µM

Task item: Recall and state the measured TGI for O=C1CC2CCN(C(=O)c3ccccc3)CC2CCN1 (stereo not given) .
Reply: > 100 µM

Source of measurements: PubChem BioAssay (NCI)
